src = patent US20230074436A1

- target: human alpha-synuclein monomer (human, UniProt P37840 1-140)
- assay.method.text: SPR (Biacore 8K), IgG captured on anti-human Fc, aSyn monomer injected;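 further: aSyn injected as a dilution series, signal corrected against a reference cell holding an irrelevant IgG, Kd from one-to-one Langmuir kinetic fitting of kon and koff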
pKd: −log10 of the molar value.
parameter: pKd

1) H3_3_LC2 (antibody, V domains shown) VH: EVQLVESGGGLVQPGGSLRLSCAASGFTFSNAAMYWVRQAPGKGLELVSRIRTKPNNYATYHADSVKGRFTISRDNSKNTLYLQMNSLRAEDTAVYYCAAAMARGDYWGQGTLVTVSS VL: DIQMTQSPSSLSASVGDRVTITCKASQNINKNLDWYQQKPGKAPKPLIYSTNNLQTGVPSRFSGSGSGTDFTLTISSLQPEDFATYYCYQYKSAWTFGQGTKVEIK ... 8.28
2) HC2_L3_11 (antibody, V domains shown) VH: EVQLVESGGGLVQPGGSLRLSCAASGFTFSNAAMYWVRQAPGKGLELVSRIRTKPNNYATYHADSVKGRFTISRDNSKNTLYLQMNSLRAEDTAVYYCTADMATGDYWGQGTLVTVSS VL: DIQMTQSPSSLSASVGDRVTITCKASQNINKNLDWYQQKPGKAPKPLIYSTNNLQTGVPSRFSGSGSGTDFTLTISSLQPEDFATYYCYQYKFAWTFGQGTKVEIK ... 8.47
3) H1_5_LC2 (antibody, V domains shown) VH: EVQLVESGGGLVQPGGSLRLSCAASGFKFSKAAMYWVRQAPGKGLELVSRIRTKPNNYATYHADSVKGRFTISRDNSKNTLYLQMNSLRAEDTAVYYCTADMATGDYWGQGTLVTVSS VL: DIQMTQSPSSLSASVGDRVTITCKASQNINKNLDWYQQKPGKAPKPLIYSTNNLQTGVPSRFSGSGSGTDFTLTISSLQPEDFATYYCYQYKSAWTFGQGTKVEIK ... 8.34
